Biological target: T1, mFLAG-EGF34+NRR-His6, the murine Notch1 NRR immunogen (mouse Notch1 V1307-Q1723) (mouse, UniProt Q01705 1307-1723)
T1 construct: N-terminal FLAG tag and C-terminal His tag, expressed in 293-F cells; also called mNotch1 NRR; mouse Notch1 NRR
T1 sequence (Q01705 other isoform, or with tags, fused parts or gaps): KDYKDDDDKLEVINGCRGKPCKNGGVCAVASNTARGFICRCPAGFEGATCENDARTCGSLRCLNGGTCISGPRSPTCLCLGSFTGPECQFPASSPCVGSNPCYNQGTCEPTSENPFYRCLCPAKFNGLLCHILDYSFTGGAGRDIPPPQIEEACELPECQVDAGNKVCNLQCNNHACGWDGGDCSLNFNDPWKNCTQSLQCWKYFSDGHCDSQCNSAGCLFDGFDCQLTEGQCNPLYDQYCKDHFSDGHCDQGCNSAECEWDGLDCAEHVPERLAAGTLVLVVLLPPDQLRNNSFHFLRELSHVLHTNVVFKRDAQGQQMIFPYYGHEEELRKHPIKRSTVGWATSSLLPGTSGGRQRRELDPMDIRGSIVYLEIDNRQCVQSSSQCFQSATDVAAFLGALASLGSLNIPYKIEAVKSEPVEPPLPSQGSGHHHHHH
Assay: SPR (BIAcore-3000), IgG captured on rabbit anti-human IgG, NRR1-ECD protein injected 3.9-500 nM, 25 C, 1:1 Langmuir
Each item that follows carries a reported Kd.
Supply the numeric figure in nM, leaving out any unit text.

>>> data_value("Antibody A (antibody, IgG1, V domains shown, also called anti-Notch1 NRR Antibody A; Antibody A-hIgG1) VH: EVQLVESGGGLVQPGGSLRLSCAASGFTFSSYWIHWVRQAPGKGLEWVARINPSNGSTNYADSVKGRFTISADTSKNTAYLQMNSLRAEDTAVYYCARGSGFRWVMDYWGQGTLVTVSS VL: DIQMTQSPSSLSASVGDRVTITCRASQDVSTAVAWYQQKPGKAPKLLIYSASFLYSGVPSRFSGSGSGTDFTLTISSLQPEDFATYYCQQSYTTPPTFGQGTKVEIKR")
231

Fill blank: measured Kd of the binder Antibody A-1 (antibody, IgG1, V domains shown, also called Antibody A-1-hIgG1) VH: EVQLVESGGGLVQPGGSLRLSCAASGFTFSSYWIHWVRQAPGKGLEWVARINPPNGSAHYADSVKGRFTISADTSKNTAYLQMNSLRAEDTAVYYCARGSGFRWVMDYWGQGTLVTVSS VL: DIQMTQSPSSLSASVGDRVTITCRASQDVSTAVAWYQQKPGKAPKLLIYSASFLYSGVPSRFSGSGSGTDFTLTISSLQPEDFATYYCQQSYTTPATFGQGTKVEIKR is ____.
3.88

GET /values?readout=Kd&item= Antibody A-2 (antibody, IgG1, V domains shown, also called Antibody A-2-hIgG1) VH: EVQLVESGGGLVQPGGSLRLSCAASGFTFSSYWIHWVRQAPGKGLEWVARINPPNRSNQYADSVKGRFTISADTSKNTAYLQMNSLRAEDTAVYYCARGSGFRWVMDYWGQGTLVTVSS VL: DIQMTQSPSSLSASVGDRVTITCRASQDVSTAVAWYQQKPGKAPKLLIYSASFLYSGVPSRFSGSGSGTDFTLTISSLQPEDFATYYCQQFYTTPSTFGQGTKVEIKR
3.09
